Entry source: patent US20090012046A1

System: HIV-1 strain with RT mutations L100I K103N
Method: Susceptibility of site-directed mutant strain
Type: cell-based
Setup Conditions: SDM strain L100I K103N
Where a name gives a salt, the structure may show the parent alone.
Endpoint Label: Fold change
No unit in the answer, please; the number alone is enough.

A selection of reference data follows.
- Compound: "CC(C)OC(=O)OCOP(=O)(CO[C@H](C)Cn1cnc2c(N)ncnc21)OCOC(=O)OC(C)C [TDF, tenofovir disoproxil fumarate]"
  Measured Number: 0.3
- Compound: "Cn1c2ccccc2c2c1cc(C#N)c(=O)n2-c1ccc([N+](=O)[O-])cc1"
  Measured Number: 2.6

Pending compound:
Form field Fold change for item Nc1ccn([C@@H]2CS[C@H](CO)O2)c(=O)n1 on HIV-1 strain with RT mutations L100I K103N: 0.5

---

System: HIV-1 strain with RT mutation Y181C
Method: Susceptibility of site-directed mutant strain
Type: cell-based
Setup Conditions: SDM strain Y181C
Counter-ions that a name gives are not always drawn.
Reported Fold change is given for each of the following molecules.
I only need the number, thanks.

Recorded Fold change, per entry:
- Molecule: "Nc1ccn([C@@H]2CS[C@H](CO)O2)c(=O)n1"
  Fold change: 1.1
- Molecule: "Cn1c2ccccc2c2c1cc(C#N)c(=O)n2-c1ccc([N+](=O)[O-])cc1"
  Fold change: 2.3

Switching to the query record.
Field Fold change (HIV-1 strain with RT mutation Y181C), entry CC(C)OC(=O)OCOP(=O)(CO[C@H](C)Cn1cnc2c(N)ncnc21)OCOC(=O)OC(C)C [TDF, tenofovir disoproxil fumarate] : 0.7

---

Tested on: HIV-1 strain with RT mutations Y115F M184V
Method: Susceptibility of site-directed mutant strain
Assay type: cell-based
Setup Conditions: SDM strain Y115F M184V
Structures can show the parent of a compound that is named as a salt.
Endpoint Label: Fold change
Respond with the number and no other words.

These solved cases illustrate the format of a correct answer.
- Compound: "Cc1ccnc2c1NC(=O)c1cccnc1N2C1CC1"
  Target Desc: "HIV-1 strain with RT mutations Y115F M184V"
  Fold change: 2.3
- Compound: "CC(C)OC(=O)OCOP(=O)(CO[C@H](C)Cn1cnc2c(N)ncnc21)OCOC(=O)OC(C)C [TDF, tenofovir disoproxil fumarate]"
  Target Desc: "HIV-1 strain with RT mutations Y115F M184V"
  Fold change: 0.9

Lab note: next compound to report on.
Entry Cn1c2ccccc2c2c1cc(C#N)c(=O)n2-c1ccc([N+](=O)[O-])cc1 : Fold change on HIV-1 strain with RT mutations Y115F M184V = 75

---

System: HIV-1 strain with RT mutations F227C L234I
Method: Susceptibility of site-directed mutant strain
Type: cell-based
Setup Conditions: SDM strain F227C L234I
Where a name gives a salt, the structure may show the parent alone.
# Fold change per entry
No unit in the answer, only the number.

Consider the following illustrative entries.
- Molecule: "CC(C)OC(=O)OCOP(=O)(CO[C@H](C)Cn1cnc2c(N)ncnc21)OCOC(=O)OC(C)C [TDF, tenofovir disoproxil fumarate]"
  Fold change: 0.6
- Molecule: "Cn1c2ccccc2c2c1cc(C#N)c(=O)n2-c1ccc([N+](=O)[O-])cc1 [NcRTI-1]"
  Fold change: 2.0
- Molecule: "Cc1ccnc2c1NC(=O)c1cccnc1N2C1CC1 [NVP, nevirapine]"
  Fold change: 31

Consider now this further molecule.
Record summary for Nc1ccn([C@@H]2CS[C@H](CO)O2)c(=O)n1 [3TC, lamivudine] : reported Fold change = 1.1

---

Entries annotated with measured Fold change
Tested on: HIV-1 strain with RT mutation Y188L
Method: Susceptibility of site-directed mutant strain
Assay type: cell-based
Setup Conditions: SDM strain Y188L
Where a name gives a salt, the structure may show the parent alone.

- Compound: "Cn1c2ccccc2c2c1cc(C#N)c(=O)n2-c1ccc([N+](=O)[O-])cc1"
  Target Desc: "HIV-1 strain with RT mutation Y188L"
  Endpoint Label: "Fold change"
  Result: 1.7
- Compound: "Nc1ccn([C@@H]2CS[C@H](CO)O2)c(=O)n1"
  Target Desc: "HIV-1 strain with RT mutation Y188L"
  Endpoint Label: "Fold change"
  Result: 1.9
- Compound: "CC(C)OC(=O)OCOP(=O)(CO[C@H](C)Cn1cnc2c(N)ncnc21)OCOC(=O)OC(C)C [TDF, tenofovir disoproxil fumarate]"
  Target Desc: "HIV-1 strain with RT mutation Y188L"
  Endpoint Label: "Fold change"
  Result: 0.7

Okay, next one:
Memo: Cc1ccnc2c1NC(=O)c1cccnc1N2C1CC1 , reported Fold change: >100

---

Catalogue of Fold change readings, one per entry.
System: HIV-1 strain with RT mutations M041L D067N K070R T215Y
Method: Susceptibility of site-directed mutant strain
Type: cell-based
Setup Conditions: SDM strain M041L D067N K070R T215Y
Where a name gives a salt, the structure may show the parent alone.
Form: value (number only, do not type unit).

Take a look at these entries with their results.
- Molecule: "Cn1c2ccccc2c2c1cc(C#N)c(=O)n2-c1ccc([N+](=O)[O-])cc1"
  Fold change: 3.8
- Molecule: "Cc1ccnc2c1NC(=O)c1cccnc1N2C1CC1"
  Fold change: 2.8
- Molecule: "CC(C)OC(=O)OCOP(=O)(CO[C@H](C)Cn1cnc2c(N)ncnc21)OCOC(=O)OC(C)C [TDF, tenofovir disoproxil fumarate]"
  Fold change: 3.3

Kindly consider the entry below.
The recorded Fold change for Nc1ccn([C@@H]2CS[C@H](CO)O2)c(=O)n1 is 8.1

---

The reader will find reported Fold change values listed item by item below.
Tested on: HIV-1 strain with RT mutations K101E K103N
Method: Susceptibility of site-directed mutant strain
Format: cell-based
Setup Conditions: SDM strain K101E K103N
Counter-ions that a name gives are not always drawn.
Answer using only a numeral; do not append any unit.

Check out these entries, answers already filled in.
- Compound: "CC(C)OC(=O)OCOP(=O)(CO[C@H](C)Cn1cnc2c(N)ncnc21)OCOC(=O)OC(C)C [TDF, tenofovir disoproxil fumarate]"
  Fold change: 0.5
- Compound: "Cn1c2ccccc2c2c1cc(C#N)c(=O)n2-c1ccc([N+](=O)[O-])cc1"
  Fold change: 2.1

Entry Nc1ccn([C@@H]2CS[C@H](CO)O2)c(=O)n1 ; Fold change = 1.3
